- Assayed system: human GLP-1 receptor (human, UniProt P43220 24-463)
- Experimental details: cell-based or functional assay
*1 amine or outer side, *2 acyl side, *3 side chain or, on linkers, in order; H or OH if unused. Where no end group is shown, it is not given here. Side-chain parts run from the residue outwards. [ ]: non-standard residue; d: D form. The star is where a group is joined. αMePhe(2-F) = C[C@](N)(Cc1ccccc1F)C(=O)O; γGlu = O=C(O)[C@H](CCC(=O)[*:2])N[*:1]; C14 diacid = O=C(O)CCCCCCCCCCCCC(=O)*; αMeF = C[C@](N)(Cc1ccccc1)C(=O)O; αMeL = CC(C)C[C@](C)(N)C(=O)O; Orn = NCCC[C@H](N)C(=O)O; AEEA = NCCOCCOCC(=O)O; Aib = CC(C)(N)C(=O)O
Property name: Emax, cAMP (%)
Numbers only, in %.

Some solved entries appear below for comparison.
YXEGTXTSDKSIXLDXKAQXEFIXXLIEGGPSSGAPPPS (Aib2, αMeF(2F)6, αMeL13, Orn16, Aib20, D-Glu24, αMeY25, K10 and K17: K(AEEA2-(γ-Glu)-(4-(4-tert-butylphenyl)butanoyl)), C-terminal NH2) [Example 130] : 100
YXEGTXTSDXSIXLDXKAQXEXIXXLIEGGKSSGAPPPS (Aib2, αMeF(2F)6, 4Pal10, αMeL13, Orn16, Aib20, Bzt22, D-Glu24, αMeY25, K17 and K31: K(AEEA2-(γ-Glu)-CO-(CH2)12-CO2H), C-terminal NH2) [Example 147] : 93.5
YXEGTXTSDXXIXLDXKAQXEXIKXLIEGGPSSGAPPPS (Aib2, αMeF(2F)6, 4Pal10, Aib11, αMeL13, Orn16, Aib20, αMeF22, αMeY25, K17 and K24: K(AEEA2-(γ-Glu)-CO-(CH2)12-CO2H), C-terminal NH2) [Example 117] : 98.2
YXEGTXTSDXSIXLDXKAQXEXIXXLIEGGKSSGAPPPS (Aib2, αMeF(2F)6, Ac5c10, αMeL13, Orn16, Aib20, αMeF22, D-Glu24, αMeY25, K17 and K31: K(AEEA2-(γ-Glu)-CO-(CH2)12-CO2H), C-terminal NH2) [Example 94] : 97.4
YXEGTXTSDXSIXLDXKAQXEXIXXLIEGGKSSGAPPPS (Aib2, αMeF(2F)6, 4Pal10, αMeL13, Orn16, Aib20, ChA22, D-Glu24, αMeY25, K17 and K31: K(AEEA2-(γ-Glu)-CO-(CH2)12-CO2H), C-terminal NH2) [Example 148] : 94.5
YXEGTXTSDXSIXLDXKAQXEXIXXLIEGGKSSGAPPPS (Aib2, αMeF(2F)6, 4Pal10, αMeL13, Orn16, Aib20, 2FPhe22, D-Glu24, αMeY25, K17 and K31: K(AEEA2-(γ-Glu)-CO-(CH2)12-CO2H), C-terminal NH2) [Example 63] : 90.6
YXEGTXTSDVSIXLDXKAQXEXIKXLIEGGPSSGAPPPS (Aib2, αMeF(2F)6, αMeL13, Orn16, Aib20, αMeF22, αMeF25, K17 and K24: K(AEEA2-(γ-Glu)-CO-(CH2)12-CO2H), C-terminal NH2) [Example 122] : 94.3
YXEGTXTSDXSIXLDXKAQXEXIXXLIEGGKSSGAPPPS (Aib2, αMeF6, 4Pal10, αMeL13, Orn16, Aib20, αMeF22, D-Glu24, αMeY25, K17 and K31: K(AEEA2-(γ-Glu)-CO-(CH2)12-CO2H), C-terminal NH2) [Example 47] : 87.1
YXEGTXTSDXSIXLDXKAQXEFIXKLIEGGPSSGAPPPS (Aib2, αMeF(2F)6, 4Pal10, αMeL13, Orn16, Aib20, D-Glu24, K17 and K25: K(AEEA2-(γ-Glu)-CO-(CH2)14-CH3), C-terminal NH2) [Example 32] : 119
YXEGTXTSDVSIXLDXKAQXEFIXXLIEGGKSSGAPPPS (Aib2, αMeF(2F)6, αMeL13, Orn16, Aib20, D-Glu24, αMeY25, K17 and K31: K(AEEA2-(γ-Glu)-CO-(CH2)12-CO2H), C-terminal NH2) [Example 90] : 96.2

Look at each binder and report its Emax, cAMP.
1. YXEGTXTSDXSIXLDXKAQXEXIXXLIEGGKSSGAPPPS (Aib2, αMeF(2F)6, 4Pal10, αMeL13, Orn16, Aib20, 3FPhe22, D-Glu24, αMeY25, K17 and K31: K(AEEA2-(γ-Glu)-CO-(CH2)12-CO2H), C-terminal NH2) [Example 64]
2. Y[Aib]EGT[αMePhe(2-F)]TSDV[Aib]I[αMeL]LD[Orn]K([AEEA-AEEA-γGlu-C14 diacid])AQ[Aib]E[αMeF]IK([AEEA-AEEA-γGlu-C14 diacid])[αMeF]LIEGGPSSGAPPPS-NH2 [Example 123]

97.3
96.3

Data credit: patent US20230265151A1
